Target: dopamine transporter (h) (Homo sapiens)
Construct: expressed in transfected cells; host or cells: CHO cells
Sequence (Q01959 whole entry): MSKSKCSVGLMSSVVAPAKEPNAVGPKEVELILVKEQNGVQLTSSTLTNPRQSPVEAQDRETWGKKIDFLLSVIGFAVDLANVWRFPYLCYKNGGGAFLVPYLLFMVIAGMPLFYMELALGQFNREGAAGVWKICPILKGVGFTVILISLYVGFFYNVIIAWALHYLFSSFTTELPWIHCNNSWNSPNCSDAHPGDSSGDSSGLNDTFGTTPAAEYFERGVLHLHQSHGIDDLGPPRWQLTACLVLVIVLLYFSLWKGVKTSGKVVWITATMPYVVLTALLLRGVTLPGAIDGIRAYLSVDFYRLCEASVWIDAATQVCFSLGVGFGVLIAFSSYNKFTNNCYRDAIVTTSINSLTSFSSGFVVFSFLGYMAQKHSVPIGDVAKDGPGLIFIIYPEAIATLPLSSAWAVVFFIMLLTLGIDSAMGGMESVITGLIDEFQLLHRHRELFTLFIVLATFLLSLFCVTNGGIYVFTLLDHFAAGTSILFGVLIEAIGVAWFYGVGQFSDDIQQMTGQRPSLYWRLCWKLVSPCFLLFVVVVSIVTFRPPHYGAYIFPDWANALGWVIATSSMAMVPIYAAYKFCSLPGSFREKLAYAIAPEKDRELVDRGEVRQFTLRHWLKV
Experiment: dopamine transporter (h) antagonist radioligand binding assay ([3H]BTCP)
Conditions: 1.00E−06 M, 1st, read-out: % Inhibition of Control Specific Binding, 1st
Class met: inhibition at 1 µM at least 10%. Class not met: inhibition at 1 µM below 10%.

O=C1CCCc2ccccc2N1CCCCN1CCN(c2ccc(Cl)cc2)CC1	met
O=C1COCc2ccccc2N1CCCCN1CCN(c2ccc(Cl)cc2)CC1	not met
O=C1CSCc2ccccc2N1CCCCN1CCN(c2ccc(Cl)cc2)CC1	not met
O=C1CSCc2ccccc2N1CCCCN1CCN(c2cccc(Cl)c2)CC1	met
O=C1CSCc2ccccc2N1CCCCN1CCC2(CC1)OCc1ccccc12	met
O=C1COCc2ccccc2N1CCCCN1CCN(c2cccc(Cl)c2)CC1	met
O=C1CCCc2ccccc2N1CCCCN1CCN(c2ccccc2Cl)CC1	not met
O=C1COCc2ccccc2N1CCCCN1CCC2(CC1)OCc1ccccc12	not met
O=C1CCCc2ccccc2N1CCCCN1CCC2(CC1)OCc1ccccc12	not met
Cn1c(=O)n(CCCCN2CCC3(CC2)OCc2ccccc23)c2ccccc21 [CM699, reference compound]	met
O=C1CCCc2ccccc2N1CCCCN1CCN(c2cccc(Cl)c2)CC1	met
O=C1CSCc2ccccc2N1CCCCN1CCN(c2ccccc2Cl)CC1	met
